assay: Preliminary assessment of in vivo pharmacokinetics in rats; details: rat, plasma, po, 20 mg/kg, rats; intragastric 20 mg/kg; mean; read-out: MRT0-∞
Measured Attribute: MRT inf (h)
// return numeric value only (unit: h, not printed)

For record CC(C)Oc1ccc(-c2nc(-c3ccc(CN4CC(C(=O)O)C4)c4ccccc34)no2)cc1C#N.Cl the listed MRT inf is 2.72

* * *

assay: Preliminary assessment of in vivo pharmacokinetics in rats; details: rat, plasma, iv, 2 mg/kg, rats; intravenous 2 mg/kg; individual animals 1-3
Measured Attribute: clearance (mL/min/kg)
The reply should contain only the number, in mL/min/kg.

// clearance lookup, molecule = CC(C)Oc1ccc(-c2nc(-c3ccc(CN4CC(C(=O)O)C4)c4ccccc34)no2)cc1C#N.Cl , result: 9.34

* * *

experiment: Preliminary assessment of pharmacokinetics in mice; format: in vivo, CD-1 mice; conditions: male, CD-1, mouse, plasma, po, 2 mg/kg, title: oral 2 mg/kg; 2.00 h; mean; read-out: Concentration of A1 Drug in Plasma of Mice
Measured Attribute: concentration at 2 h (µg/mL)
Lab book: enter the figure in µg/mL, no units written.

Notebook: CC(C)Oc1ccc(-c2nc(-c3ccc(CN4CC(C(=O)O)C4)c4ccccc34)no2)cc1C#N.Cl , concentration at 2 h read as 0.0498

* * *

assay: Preliminary assessment of pharmacokinetics in mice; format: in vivo, CD-1 mice; conditions: male, CD-1, mouse, plasma, intraperitoneal, 20 mg/kg, title: intraperitoneal 20 mg/kg; 4.00 h; mean; read-out: Concentration of A1 Drug in Plasma of Mice
Measured Attribute: concentration at 4 h (ng/mL)
Answer in ng/mL, number only, no unit symbol.

concentration at 4 h for CC(C)Oc1ccc(-c2nc(-c3ccc(CN4CC(C(=O)O)C4)c4ccccc34)no2)cc1C#N.Cl is 142

* * *

experiment: Preliminary assessment of in vivo pharmacokinetics in rats; conditions: rat, plasma, oral, 20 mg/kg, intragastric 20 mg/kg; 2 h; individual animals 4-6; read-out: Plasma drug concentrations in rats
Measured Attribute: concentration at 2 h (ng/mL)
Express the result in ng/mL but write the number alone.

The recorded concentration at 2 h for CC(C)Oc1ccc(-c2nc(-c3ccc(CN4CC(C(=O)O)C4)c4ccccc34)no2)cc1C#N.Cl [Compound A1] is 2290

* * *

experiment: Preliminary assessment of pharmacokinetics in mice; format: in vivo, CD-1 mice; conditions: male, CD-1, mouse, plasma, po, 2 mg/kg, title: oral 2 mg/kg; 0.75 h; individual animals 4-6; read-out: Concentration of A1 Drug in Plasma of Mice
Measured Attribute: concentration at 0.75 h (ng/mL)
State the answer as a number, implicitly in ng/mL.

Recorded concentration at 0.75 h (compound CC(C)Oc1ccc(-c2nc(-c3ccc(CN4CC(C(=O)O)C4)c4ccccc34)no2)cc1C#N.Cl [Compound A1] ): 178

* * *

test: Preliminary assessment of in vivo pharmacokinetics in rats; settings: rat, plasma, oral, 20 mg/kg, intragastric 20 mg/kg; 6 h; mean; read-out: Plasma drug concentrations in rats
Measured Attribute: concentration at 6 h (ng/mL)
Write down the numeric answer in ng/mL and omit the unit.

Just so you know, measured concentration at 6 h for CC(C)Oc1ccc(-c2nc(-c3ccc(CN4CC(C(=O)O)C4)c4ccccc34)no2)cc1C#N.Cl came out at 320

The measurements presented in this section are drawn from patent US20240208954A1.
